src = paper PMC7158045

target: ZmDRIK1-R187-P492 (Zea mays, UniProt C0P4K9)
Construct: kinase domain, R187-P492
Sequence (C0P4K9 1-514): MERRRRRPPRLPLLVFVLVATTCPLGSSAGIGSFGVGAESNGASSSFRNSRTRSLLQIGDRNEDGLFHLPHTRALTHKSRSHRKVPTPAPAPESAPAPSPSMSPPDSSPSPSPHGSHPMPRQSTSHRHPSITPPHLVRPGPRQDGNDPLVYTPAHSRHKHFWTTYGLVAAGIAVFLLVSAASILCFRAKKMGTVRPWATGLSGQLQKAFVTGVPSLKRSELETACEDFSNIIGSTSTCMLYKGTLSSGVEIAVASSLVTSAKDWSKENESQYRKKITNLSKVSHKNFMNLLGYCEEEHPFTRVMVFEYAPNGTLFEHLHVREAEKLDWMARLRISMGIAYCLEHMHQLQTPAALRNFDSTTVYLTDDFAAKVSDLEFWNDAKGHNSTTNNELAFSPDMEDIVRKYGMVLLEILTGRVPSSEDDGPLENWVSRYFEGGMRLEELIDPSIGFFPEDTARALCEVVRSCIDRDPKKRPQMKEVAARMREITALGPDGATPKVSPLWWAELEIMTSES
protocol description: biochemical
applied conditions: read-out: dTm B, DSF, Boltzmann fit, 0.1% DMSO
readout kind: ΔTm at 10 µM (°C)
Answers are plain numbers, in °C.

compound="N#Cc1c(Oc2ccc(F)c(NC(=O)Cc3cccc(C(F)(F)F)c3)c2)ccc2nc(NC(=O)C3CC3)sc12 [TAK-632]" result_unit=°C observed_measurement=-0.521
compound="C[C@H]1[C@H](C)CC[C@]2(C(=O)O)CC[C@]3(C)C(=CC[C@@H]4[C@@]5(C)C[C@@H](O)[C@H](O)[C@@](C)(CO)[C@@H]5CC[C@]43C)[C@H]12 [Asiatic Acid]" result_unit=°C observed_measurement=-0.41
compound="Cc1ccc([N+](=O)[O-])cc1S(=O)(=O)N(C)/N=C/c1cnc2ccc(Br)cn12 [PIK-75]" result_unit=°C observed_measurement=-0.296
compound="Cc1cc(Nc2cc(N3CCN(C)CC3)nc(Sc3ccc(NC(=O)C4CC4)cc3)n2)n[nH]1 [VX-680 (Tozasertib)]" result_unit=°C observed_measurement=-0.37

Give ΔTm at 10 µM for each listed item.
1. N#C/C(=C(/N)Sc1ccc(N)cc1)c1ccccc1C(F)(F)F [SL-327]
2. NC(=O)Nc1cc(-c2cccc(F)c2)sc1C(=O)N[C@H]1CCCNC1 [AZD7762]
3. FC(F)(F)c1ccc(/C=C/c2nc(COc3ccc(CCCCn4ccnn4)cc3)co2)cc1 [Mubritinib (TAK 165)]

Output:
1. -0.157
2. -0.167
3. -0.156
